Reference for the values: ChEMBL document CHEMBL1145498

biological target: Tyrosine-protein kinase JAK1 (Homo sapiens) (UniProt P23458)
Sequence (P23458 whole entry): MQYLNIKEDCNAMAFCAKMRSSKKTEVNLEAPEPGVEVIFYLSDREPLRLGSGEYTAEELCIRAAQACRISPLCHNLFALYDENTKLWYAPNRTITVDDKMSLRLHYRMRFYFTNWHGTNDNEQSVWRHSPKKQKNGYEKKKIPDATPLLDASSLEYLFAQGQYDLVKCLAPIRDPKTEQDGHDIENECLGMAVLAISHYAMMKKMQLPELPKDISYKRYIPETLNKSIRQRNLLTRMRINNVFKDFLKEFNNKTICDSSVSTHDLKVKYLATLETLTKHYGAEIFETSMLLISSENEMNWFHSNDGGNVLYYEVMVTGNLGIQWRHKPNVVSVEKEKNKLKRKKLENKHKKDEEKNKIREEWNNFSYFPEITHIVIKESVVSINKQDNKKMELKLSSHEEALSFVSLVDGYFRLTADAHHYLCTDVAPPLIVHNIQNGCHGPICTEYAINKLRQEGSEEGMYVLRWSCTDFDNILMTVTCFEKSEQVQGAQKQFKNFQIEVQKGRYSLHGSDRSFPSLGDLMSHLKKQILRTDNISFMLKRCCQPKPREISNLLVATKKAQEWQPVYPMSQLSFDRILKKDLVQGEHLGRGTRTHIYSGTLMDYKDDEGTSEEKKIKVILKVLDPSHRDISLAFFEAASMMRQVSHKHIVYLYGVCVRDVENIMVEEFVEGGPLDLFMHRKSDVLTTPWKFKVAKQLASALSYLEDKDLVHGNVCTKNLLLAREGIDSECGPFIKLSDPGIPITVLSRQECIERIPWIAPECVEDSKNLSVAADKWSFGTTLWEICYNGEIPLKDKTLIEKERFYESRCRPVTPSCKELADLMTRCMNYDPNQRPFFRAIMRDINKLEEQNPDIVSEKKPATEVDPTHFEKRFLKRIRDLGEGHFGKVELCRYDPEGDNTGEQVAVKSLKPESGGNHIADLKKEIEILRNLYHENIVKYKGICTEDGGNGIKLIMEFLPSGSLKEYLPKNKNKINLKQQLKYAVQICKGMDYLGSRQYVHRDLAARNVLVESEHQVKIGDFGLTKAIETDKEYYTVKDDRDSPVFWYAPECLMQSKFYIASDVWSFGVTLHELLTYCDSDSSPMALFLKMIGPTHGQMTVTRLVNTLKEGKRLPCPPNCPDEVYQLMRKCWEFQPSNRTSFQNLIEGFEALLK
outcome-measure: ΔTm (°C)
Give bare numbers, in °C.

| compound | ΔTm (°C) |
| --- | --- |
| CCN1/C(=C/C(C)=O)Sc2ccc(OC)cc21 | -0.4 |
| Nc1cccc(-c2cc3c(Oc4cccc(O)c4)ncnc3[nH]2)c1 | 4.3 |
| Nc1nc(Nc2ccc(S(N)(=O)=O)cc2)nn1C(=S)Nc1c(F)cccc1F | 10.4 |
| CC(C)n1cnc2c(NCc3ccccc3O)nc(NCCCO)nc21 | 0.8 |
| O=C1Nc2ccc(I)cc2/C1=C\c1cc(Br)c(O)c(Br)c1 | 4.5 |
| O=c1ccc2ccc(O)c(O)c2o1 | 0.2 |
| Cc1nc2sccn2c(=O)c1CCN1CCC(=C(c2ccccc2)c2ccc(F)cc2)CC1 | 4.8 |
| COc1ccc(COc2ccc(Cc3cnc(N)nc3N)cc2OC)cc1 | 0.3 |

# return ΔTm for each item in the list
1. Cn1cc(C2=C(c3cn(CCCSC(=N)N)c4ccccc34)C(=O)NC2=O)c2ccccc21
2. COc1nccc(-c2c(-c3ccc(F)cc3)ncn2[C@H]2CC[C@H](O)CC2)n1
3. CSc1nc(-c2ccc(F)cc2)c(-c2ccnc(NC(C)c3ccccc3)c2)[nH]1 (racemic)
4. Ic1cccc(CSc2nnc(-c3ccncc3)o2)c1
5. COc1ccc(CNc2nc(N(CCO)CCO)nc3c2ncn3C(C)C)cc1
6. CC(C)(C)c1cc(C=C2C(=O)C=CC2=O)cc(C(C)(C)C)c1O

0
0.8
0.9
-0.3
0.2
-7.9
